Cited source: patent US9701672B2

Target: human MGAT-2 (Homo sapiens (Human))
Experiment: MGAT LCMS assay (h-MGAT LCMS)
Format: biochemical
Details: human MGAT2 membranes expressed in Sf9 cells; 100 μM 2-oleoylglycerol, 15 μM oleoyl-coenzyme A
Property name: IC50 (nM)

See these solved cases before continuing.
O=C1N[C@@](c2ccc(OCCCC(F)(F)F)cc2)(C(F)(F)F)CC(c2ccc(C3CC3)s2)=C1c1nnn[nH]1; 2.5
CN(C)c1ccc(C2=C(c3nnn[nH]3)C(=O)N[C@@](c3ccc(OCCCC(F)(F)F)cc3)(C(F)(F)F)C2)nc1; 17.6

1: CN(C)c1cnc(C2=C(c3nnn[nH]3)C(=O)N[C@@](c3ccc(OCCCCC(F)(F)F)cc3)(C(F)(F)F)C2)s1
2: CCc1ccc(C2=C(c3nnn[nH]3)C(=O)N[C@@](c3ccc(Br)cc3)(C(F)(F)F)C2)s1
## Task Between the two listed entries 1 and 2 , which has its IC50 at the higher number? Could you answer with the label of the item you picked?
## Result 2
(2: 8.8 nM, 1: 3.5 nM)

P: CCn1ccc(C2=C(c3nnn[nH]3)C(=O)N[C@@](c3ccc(CCCCC(F)(F)F)cc3F)(C(F)(F)F)C2)n1
Q: O=C1N[C@@](c2ccc(OCCCCCC(F)(F)F)cc2)(C(F)(F)F)CC(c2ccn(CC3CC3)n2)=C1c1nnn[nH]1
## Task Between the two listed entries P and Q , which has its IC50 at the higher number? Could you answer with the label of the item you picked?
## Result P

---

Biological target: human MGAT-2 (Homo sapiens (Human), UniProt Q3SYC2)
Sequence (Q3SYC2 whole entry): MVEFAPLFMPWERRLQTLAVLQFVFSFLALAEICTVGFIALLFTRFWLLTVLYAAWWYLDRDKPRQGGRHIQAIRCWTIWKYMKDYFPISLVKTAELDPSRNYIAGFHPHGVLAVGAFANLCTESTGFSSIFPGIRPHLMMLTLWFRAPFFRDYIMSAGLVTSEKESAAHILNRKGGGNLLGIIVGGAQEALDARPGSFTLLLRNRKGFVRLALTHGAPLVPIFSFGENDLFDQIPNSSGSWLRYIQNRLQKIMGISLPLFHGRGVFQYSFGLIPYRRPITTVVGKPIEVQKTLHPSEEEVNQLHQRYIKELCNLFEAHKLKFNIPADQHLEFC
Test: MGAT LCMS assay (h-MGAT LCMS)
Assay type: biochemical
Details: human MGAT2 membranes expressed in Sf9 cells; 100 μM 2-oleoylglycerol, 15 μM oleoyl-coenzyme A
Property name: IC50 (nM)

See these solved cases before continuing.
CCn1ccc(C2=C(c3nnn[nH]3)C(=O)N[C@@](c3ccc(OCCCC(F)(F)F)cc3F)(C(F)(F)F)C2)n1; 20.2
CCc1ccc(C2=C(c3nnn[nH]3)C(=O)N[C@@](c3ccc(OCCCCCC(F)(F)F)cc3)(C(F)(F)F)C2)s1; 2.2
CC(C)Cn1ccc(C2=C(c3nnn[nH]3)C(=O)N[C@@](c3ccc(OCCCC(F)(F)F)cc3F)(C(F)(F)F)C2)n1; 97.4

I: CCc1ccc(C2=C(NC(=O)CS(C)(=O)=O)C(=O)N[C@@](c3ccc(OCCCCCC(F)(F)F)cc3)(C(F)(F)F)C2)s1
II: Cc1cnc(C2=C(c3nnn[nH]3)C(=O)N[C@@](c3ccc(OCCCC(F)(F)F)cc3)(C(F)(F)F)C2)s1
## Task Between the two listed entries I and II , which has its IC50 at the higher number? Could you answer with the label of the item you picked?
## Result II
(II: 19.4 nM, I: 1.5 nM)

P: CN(C)Cc1ccc(C2=C(c3nnn[nH]3)C(=O)N[C@@](c3ccc(OCCCC(F)(F)F)cc3)(C(F)(F)F)C2)s1
Q: CCc1ccc(C2=C(c3nnn[nH]3)C(=O)N[C@@](c3ccc(OCCCC(F)(F)F)cc3)(C(F)(F)F)C2)s1
R: CC(C)Cn1ccc(C2=C(c3nnn[nH]3)C(=O)N[C@@](c3ccc(CCCCC(F)(F)F)cc3F)(C(F)(F)F)C2)n1
S: O=C1N[C@@](c2ccc(OCCCC(F)(F)F)cc2)(C(F)(F)F)CC(c2ccn(C3CCC3)n2)=C1c1nnn[nH]1
T: CC(C)(C)n1ccc(C2=C(c3nnn[nH]3)C(=O)N[C@@](c3ccc(OCCCCCC(F)(F)F)cc3)(C(F)(F)F)C2)n1
## Task // sort entries: IC50, high to low Reply format: the labels, ordered as requested.
## Result P, T, S, Q, R
(P: 363 nM, T: 185 nM, S: 74.7 nM, Q: 32 nM, R: 9.4 nM)

I: O=C1N[C@@](c2ccc(OCCCC(F)(F)F)cc2)(C(F)(F)F)CC(c2cnn(C3CC3)c2)=C1c1nnn[nH]1
II: O=C1N[C@@](c2ccc(OCCCC(F)(F)F)cc2)(C(F)(F)F)CC(c2ccc(Cl)s2)=C1c1nnn[nH]1
## Task Between the two listed entries I and II , which has its IC50 at the higher number? Could you answer with the label of the item you picked?
## Result II
(II: 370 nM, I: 24.5 nM)
